# System: SK-OV-3 cells
# method.description: Growth inhibition of ovarian cancer cell line SK-OV-3 (MTT assay, cell survival)
# Type: cell-based
# condition.label: Homo sapiens, drug concentration that results in 50% cell survival, 72 hrs incubation, reported as ranges
What CC50 was measured for each of the following?

Record excerpt, results attached:
• CN[C@@H](C)C(=O)N[C@H](C(=O)N1CC[C@@H]2[C@H]1[C@@H](c1c[nH]c3cc(F)ccc13)CN2CC(=O)O)C1CCCCC1 = 1000 to 10000 nM
• CN[C@@H](C)C(=O)N[C@H](C(=O)N1CC[C@@H]2[C@H]1[C@@H](c1c[nH]c3cc(F)ccc13)CN2Cc1ccncc1)C1CCCCC1 = < 100 nM
• CN[C@@H](C)C(=O)N[C@H](C(=O)N1CC[C@@H]2[C@H]1[C@@H](c1c[nH]c3cc(F)ccc13)CN2C(C)=O)C(C)C = < 100 nM
• CN[C@@H](C)C(=O)N[C@H](C(=O)N1CC[C@H]2NC[C@H](c3c[nH]c4ccccc34)[C@H]21)C1CCCCC1 = 100 to 1000 nM
• CN[C@@H](C)C(=O)N[C@H](C(=O)N1CC[C@H]2NC[C@@H](c3c[nH]c4cc(F)ccc34)[C@H]21)C1CCCCC1 = > 10000 nM

Using the record for CN[C@@H](C)C(=O)N[C@H](C(=O)N1CC[C@@H]2[C@H]1[C@H](c1c[nH]c3cc(F)ccc13)CN2S(C)(=O)=O)C1CCCCC1 , state its measured CC50.
1000 to 10000 nM
